Measured Ki by item
Target: Melanocortin receptor 3 (Homo sapiens)

# Smiles Repr, Ki
measured = [
    ("N#Cc1ccc2c(c1)C(=O)N[C@@H](Cc1c[nH]cn1)C(=O)N[C@H](Cc1ccccc1)C(=O)N[C@@H](CCCNC(=N)N)C(=O)N[C@@H](Cc1c[nH]c3ccccc13)C(=O)N[C@H](C(N)=O)CS2", "0.661 µM"),
    ("C[C@@H]1NC(=O)[C@H](Cc2c[nH]c3ccccc23)NC(=O)[C@H](CCCNC(=N)N)NC(=O)[C@@H](Cc2ccccc2)NC(=O)[C@H](Cc2c[nH]cn2)NC(=O)c2cc([N+](=O)[O-])ccc2SC[C@@H](C(N)=O)NC1=O", "0.00794 µM"),
    ("C[C@H]1NC(=O)[C@H](Cc2c[nH]c3ccccc23)NC(=O)[C@H](CCCNC(=N)N)NC(=O)[C@@H](Cc2ccccc2)NC(=O)[C@H](Cc2c[nH]cn2)NC(=O)c2cc([N+](=O)[O-])ccc2SC[C@@H](C(N)=O)NC1=O", "0.437 µM"),
    ("C[C@@H]1NC(=O)c2cc([N+](=O)[O-])ccc2SC[C@@H](C(N)=O)NC(=O)[C@H](Cc2c[nH]c3ccccc23)NC(=O)[C@H](CCCNC(=N)N)NC(=O)[C@@H](Cc2ccccc2)NC(=O)[C@H](Cc2c[nH]cn2)NC1=O", "0.513 µM"),
    ("C[C@@H]1NC(=O)c2cc(-c3cn([C@@H]4O[C@H](CO)[C@@H](O)[C@H](O)[C@H]4O)nn3)ccc2SC[C@@H](C(N)=O)NC(=O)[C@H](Cc2c[nH]c3ccccc23)NC(=O)[C@H](CCCNC(=N)N)NC(=O)[C@@H](Cc2ccccc2)NC(=O)[C@H](Cc2c[nH]cn2)NC1=O", "0.174 µM"),
    ("NC(=O)[C@@H]1CSc2ccc([N+](=O)[O-])cc2C(=O)N[C@@H](Cc2cnc[nH]2)C(=O)N[C@H](Cc2ccccc2)C(=O)N[C@@H](CCCN=C(N)N)C(=O)N[C@@H](Cc2c[nH]c3ccccc23)C(=O)N1", "0.316 µM"),
    ("C[C@H]1NC(=O)c2cc([N+](=O)[O-])ccc2SC[C@@H](C(N)=O)NC(=O)[C@H](Cc2c[nH]c3ccccc23)NC(=O)[C@H](CCCNC(=N)N)NC(=O)[C@@H](Cc2ccccc2)NC(=O)[C@H](Cc2c[nH]cn2)NC1=O", "0.0794 µM"),
    ("C[C@H]1NC(=O)c2cc(C(=N)N)ccc2SC[C@@H](C(N)=O)NC(=O)[C@H](Cc2c[nH]c3ccccc23)NC(=O)[C@H](CCCNC(=N)N)NC(=O)[C@@H](Cc2ccccc2)NC(=O)[C@H](Cc2c[nH]cn2)NC1=O", "0.148 µM"),
]

###

Target: Melanocortin receptor 3 (Homo sapiens, UniProt P41968)
Sequence (P41968 whole entry): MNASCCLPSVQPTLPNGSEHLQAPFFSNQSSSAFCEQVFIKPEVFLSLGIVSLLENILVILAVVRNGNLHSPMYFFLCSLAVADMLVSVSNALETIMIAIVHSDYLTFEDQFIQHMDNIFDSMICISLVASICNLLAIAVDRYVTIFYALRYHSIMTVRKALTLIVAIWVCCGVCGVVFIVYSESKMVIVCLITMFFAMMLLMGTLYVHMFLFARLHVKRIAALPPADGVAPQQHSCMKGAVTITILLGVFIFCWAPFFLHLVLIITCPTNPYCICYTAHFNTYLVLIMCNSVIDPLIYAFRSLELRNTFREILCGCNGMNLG
Experiment: Agonist activity at human MC3R stably expressed in human Flp-In-293 cells assessed as cAMP accumulation incubated for 45 mins in presence of IBMX by Lance Ultra cAMP assay
Readout Type: EC50 (nM)

# Smiles Repr, Target Entity, Readout Type, Observed Measurement
rows = [
    ("C[C@H]1NC(=O)c2cc([N+](=O)[O-])ccc2SC[C@@H](C(N)=O)NC(=O)[C@H](Cc2c[nH]c3ccccc23)NC(=O)[C@H](CCCNC(=N)N)NC(=O)[C@@H](Cc2ccccc2)NC(=O)[C@H](Cc2c[nH]cn2)NC1=O", "Melanocortin receptor 3 (Homo sapiens, UniProt P41968)", "EC50", 200),
    ("NC(=O)[C@@H]1CSc2ccc([N+](=O)[O-])cc2C(=O)N[C@@H](Cc2cnc[nH]2)C(=O)N[C@H](Cc2ccccc2)C(=O)N[C@@H](CCCN=C(N)N)C(=O)N[C@@H](Cc2c[nH]c3ccccc23)C(=O)N1", "Melanocortin receptor 3 (Homo sapiens, UniProt P41968)", "EC50", 5010),
    ("C[C@H]1NC(=O)[C@H](Cc2c[nH]c3ccccc23)NC(=O)[C@H](CCCNC(=N)N)NC(=O)[C@@H](Cc2ccccc2)NC(=O)[C@H](Cc2c[nH]cn2)NC(=O)c2cc([N+](=O)[O-])ccc2SC[C@@H](C(N)=O)NC1=O", "Melanocortin receptor 3 (Homo sapiens, UniProt P41968)", "EC50", 7.94),
    ("C#Cc1ccc2c(c1)C(=O)N[C@@H](Cc1c[nH]cn1)C(=O)N[C@H](Cc1ccccc1)C(=O)N[C@@H](CCCNC(=N)N)C(=O)N[C@@H](Cc1c[nH]c3ccccc13)C(=O)N[C@H](C(N)=O)CS2", "Melanocortin receptor 3 (Homo sapiens, UniProt P41968)", "EC50", 316),
    ("C#Cc1ccc2c(c1)C(=O)N[C@H](C)C(=O)N[C@@H](Cc1c[nH]cn1)C(=O)N[C@H](Cc1ccccc1)C(=O)N[C@@H](CCCNC(=N)N)C(=O)N[C@@H](Cc1c[nH]c3ccccc13)C(=O)N[C@H](C(N)=O)CS2", "Melanocortin receptor 3 (Homo sapiens, UniProt P41968)", "EC50", 34.7),
    ("C[C@H]1NC(=O)c2cc(N)ccc2SC[C@@H](C(N)=O)NC(=O)[C@H](Cc2c[nH]c3ccccc23)NC(=O)[C@H](CCCNC(=N)N)NC(=O)[C@@H](Cc2ccccc2)NC(=O)[C@H](Cc2c[nH]cn2)NC1=O", "Melanocortin receptor 3 (Homo sapiens, UniProt P41968)", "EC50", 50.1),
    ("C[C@H]1NC(=O)c2cc(C#N)ccc2SC[C@@H](C(N)=O)NC(=O)[C@H](Cc2c[nH]c3ccccc23)NC(=O)[C@H](CCCNC(=N)N)NC(=O)[C@@H](Cc2ccccc2)NC(=O)[C@H](Cc2c[nH]cn2)NC1=O", "Melanocortin receptor 3 (Homo sapiens, UniProt P41968)", "EC50", 39.8),
    ("C[C@H]1NC(=O)c2cc(C(=N)N)ccc2SC[C@@H](C(N)=O)NC(=O)[C@H](Cc2c[nH]c3ccccc23)NC(=O)[C@H](CCCNC(=N)N)NC(=O)[C@@H](Cc2ccccc2)NC(=O)[C@H](Cc2c[nH]cn2)NC1=O", "Melanocortin receptor 3 (Homo sapiens, UniProt P41968)", "EC50", 91.2),
    ("C[C@@H]1NC(=O)c2cc(-c3cn([C@@H]4O[C@H](CO)[C@@H](O)[C@H](O)[C@H]4O)nn3)ccc2SC[C@@H](C(N)=O)NC(=O)[C@H](Cc2c[nH]c3ccccc23)NC(=O)[C@H](CCCNC(=N)N)NC(=O)[C@@H](Cc2ccccc2)NC(=O)[C@H](Cc2c[nH]cn2)NC1=O", "Melanocortin receptor 3 (Homo sapiens, UniProt P41968)", "EC50", 63.1),
    ("C[C@@H]1NC(=O)[C@H](Cc2c[nH]c3ccccc23)NC(=O)[C@H](CCCNC(=N)N)NC(=O)[C@@H](Cc2ccccc2)NC(=O)[C@H](Cc2c[nH]cn2)NC(=O)c2cc([N+](=O)[O-])ccc2SC[C@@H](C(N)=O)NC1=O", "Melanocortin receptor 3 (Homo sapiens, UniProt P41968)", "EC50", 31.6),
    ("C[C@@H]1NC(=O)c2cc([N+](=O)[O-])ccc2SC[C@@H](C(N)=O)NC(=O)[C@H](Cc2c[nH]c3ccccc23)NC(=O)[C@H](CCCNC(=N)N)NC(=O)[C@@H](Cc2ccccc2)NC(=O)[C@H](Cc2c[nH]cn2)NC1=O", "Melanocortin receptor 3 (Homo sapiens, UniProt P41968)", "EC50", 1260),
]

###

Target: Melanocortin receptor 4 (Homo sapiens, UniProt P32245)
Sequence (P32245 whole entry): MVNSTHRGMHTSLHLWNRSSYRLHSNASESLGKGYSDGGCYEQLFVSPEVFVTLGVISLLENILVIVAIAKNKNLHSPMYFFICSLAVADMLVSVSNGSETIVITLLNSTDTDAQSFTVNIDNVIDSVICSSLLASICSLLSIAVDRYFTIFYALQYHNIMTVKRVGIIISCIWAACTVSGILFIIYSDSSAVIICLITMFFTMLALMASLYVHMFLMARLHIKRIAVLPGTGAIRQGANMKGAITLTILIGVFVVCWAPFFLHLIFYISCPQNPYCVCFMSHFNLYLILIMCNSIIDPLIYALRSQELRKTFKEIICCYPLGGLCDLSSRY
Assay: Displacement of sCy5-MT-I from human MC4R stably expressed in human HEK293 cells incubated for 2 hrs by Cheng-Prusoff equation based FACS analysis
Assay type: cell-based
Conditions: read-out: pKi (converted)
Measured Ki by item

# Smiles Repr, Output Unit, Ki
data = [
    ("C[C@H]1NC(=O)c2cc([N+](=O)[O-])ccc2SC[C@@H](C(N)=O)NC(=O)[C@H](Cc2c[nH]c3ccccc23)NC(=O)[C@H](CCCNC(=N)N)NC(=O)[C@@H](Cc2ccccc2)NC(=O)[C@H](Cc2c[nH]cn2)NC1=O", "nM", 0.102),
    ("C#Cc1ccc2c(c1)C(=O)N[C@H](C)C(=O)N[C@@H](Cc1c[nH]cn1)C(=O)N[C@H](Cc1ccccc1)C(=O)N[C@@H](CCCNC(=N)N)C(=O)N[C@@H](Cc1c[nH]c3ccccc13)C(=O)N[C@H](C(N)=O)CS2", "nM", 0.457),
    ("C[C@H]1NC(=O)[C@H](Cc2c[nH]c3ccccc23)NC(=O)[C@H](CCCNC(=N)N)NC(=O)[C@@H](Cc2ccccc2)NC(=O)[C@H](Cc2c[nH]cn2)NC(=O)c2cc([N+](=O)[O-])ccc2SC[C@@H](C(N)=O)NC1=O", "nM", 0.871),
    ("C[C@H]1NC(=O)c2cc(C#N)ccc2SC[C@@H](C(N)=O)NC(=O)[C@H](Cc2c[nH]c3ccccc23)NC(=O)[C@H](CCCNC(=N)N)NC(=O)[C@@H](Cc2ccccc2)NC(=O)[C@H](Cc2c[nH]cn2)NC1=O", "nM", 0.141),
    ("C[C@H]1NC(=O)c2cc(N)ccc2SC[C@@H](C(N)=O)NC(=O)[C@H](Cc2c[nH]c3ccccc23)NC(=O)[C@H](CCCNC(=N)N)NC(=O)[C@@H](Cc2ccccc2)NC(=O)[C@H](Cc2c[nH]cn2)NC1=O", "nM", 0.148),
    ("NC(=O)[C@@H]1CSc2ccc([N+](=O)[O-])cc2C(=O)N[C@@H](Cc2cnc[nH]2)C(=O)N[C@H](Cc2ccccc2)C(=O)N[C@@H](CCCN=C(N)N)C(=O)N[C@@H](Cc2c[nH]c3ccccc23)C(=O)N1", "nM", 1.58),
    ("N#Cc1ccc2c(c1)C(=O)N[C@@H](Cc1c[nH]cn1)C(=O)N[C@H](Cc1ccccc1)C(=O)N[C@@H](CCCNC(=N)N)C(=O)N[C@@H](Cc1c[nH]c3ccccc13)C(=O)N[C@H](C(N)=O)CS2", "nM", 0.794),
    ("C[C@H]1NC(=O)c2cc(C(=N)N)ccc2SC[C@@H](C(N)=O)NC(=O)[C@H](Cc2c[nH]c3ccccc23)NC(=O)[C@H](CCCNC(=N)N)NC(=O)[C@@H](Cc2ccccc2)NC(=O)[C@H](Cc2c[nH]cn2)NC1=O", "nM", 0.162),
    ("N=C(N)NCCC[C@@H]1NC(=O)[C@@H](Cc2ccccc2)NC(=O)[C@H](Cc2c[nH]cn2)NC(=O)c2cc(N)ccc2SC[C@@H](C(N)=O)NC(=O)[C@H](Cc2c[nH]c3ccccc23)NC1=O", "nM", 0.331),
]
